Provenance of the data: paper PMC11728000

assayed target: HER2 (Homo sapiens)
Sequence (P04626 23-1255): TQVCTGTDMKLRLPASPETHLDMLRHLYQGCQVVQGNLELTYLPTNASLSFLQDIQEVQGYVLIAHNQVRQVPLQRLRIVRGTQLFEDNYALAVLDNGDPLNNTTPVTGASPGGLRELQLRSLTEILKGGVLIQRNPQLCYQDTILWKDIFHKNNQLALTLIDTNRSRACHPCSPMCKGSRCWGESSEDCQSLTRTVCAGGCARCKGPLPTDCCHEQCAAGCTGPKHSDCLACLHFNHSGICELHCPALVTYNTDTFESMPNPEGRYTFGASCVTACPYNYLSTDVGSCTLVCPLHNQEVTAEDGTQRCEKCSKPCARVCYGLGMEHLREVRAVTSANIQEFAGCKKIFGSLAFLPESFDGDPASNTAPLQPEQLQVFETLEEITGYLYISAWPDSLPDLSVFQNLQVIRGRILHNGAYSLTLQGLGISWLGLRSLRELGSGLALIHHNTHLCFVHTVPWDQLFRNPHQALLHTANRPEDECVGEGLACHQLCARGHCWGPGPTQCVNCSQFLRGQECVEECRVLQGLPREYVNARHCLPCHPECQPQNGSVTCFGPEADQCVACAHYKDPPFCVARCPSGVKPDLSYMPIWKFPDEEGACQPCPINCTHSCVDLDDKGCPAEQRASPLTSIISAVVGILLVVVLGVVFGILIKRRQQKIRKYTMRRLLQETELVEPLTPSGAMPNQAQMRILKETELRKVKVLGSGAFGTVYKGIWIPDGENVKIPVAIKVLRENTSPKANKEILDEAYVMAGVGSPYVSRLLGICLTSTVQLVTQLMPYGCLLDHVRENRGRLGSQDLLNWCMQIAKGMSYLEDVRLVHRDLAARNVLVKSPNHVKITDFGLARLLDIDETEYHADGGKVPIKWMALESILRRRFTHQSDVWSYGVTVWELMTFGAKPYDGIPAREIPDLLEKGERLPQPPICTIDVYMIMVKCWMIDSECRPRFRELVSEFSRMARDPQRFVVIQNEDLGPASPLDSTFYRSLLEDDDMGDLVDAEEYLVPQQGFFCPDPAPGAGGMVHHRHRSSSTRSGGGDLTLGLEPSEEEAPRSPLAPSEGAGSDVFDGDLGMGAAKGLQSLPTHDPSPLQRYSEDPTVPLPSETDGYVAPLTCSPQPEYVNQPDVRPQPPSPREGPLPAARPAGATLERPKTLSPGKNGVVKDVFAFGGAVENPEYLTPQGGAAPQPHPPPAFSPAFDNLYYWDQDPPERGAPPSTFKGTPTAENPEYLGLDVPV
measured attribute: IC50 (µM)
Give the quantity in µM, number only.

[Q] Return IC50 for the following molecule: CS(=O)(=O)Nc1ccc(C(=O)NN=Cc2ccccc2O)cc1
[A] 0.183

[Q] Return IC50 for the following molecule: CCN(CC)c1ccc(C=NNC(=O)c2ccc(NS(C)(=O)=O)cc2)c(O)c1
[A] 0.464

====

Test system: 59 human cancer cell lines
assay protocol: NCI anticancer screening, full panel summary
test parameters: ratio of cell lines with growth inhibition > 10% to total cell lines; 10 µM single dose
measured attribute: PCE (positive cytotoxic effect)

[Q] Return PCE (positive cytotoxic effect) for the following compound: CS(=O)(=O)Nc1ccc(C(=O)N/N=C/c2cccc(O)c2)cc1
[A] 3/59

[Q] Return PCE (positive cytotoxic effect) for the following compound: COc1cc(/C=N/NC(=O)c2ccc(NS(C)(=O)=O)cc2)ccc1O
[A] 4/59

[Q] Return PCE (positive cytotoxic effect) for the following compound: CS(=O)(=O)Nc1ccc(C(=O)N/N=C/c2ccc(O)cc2)cc1
[A] 4/59

[Q] Return PCE (positive cytotoxic effect) for the following compound: CCN(CC)c1ccc(C=NNC(=O)c2ccc(NS(C)(=O)=O)cc2)c(O)c1
[A] 59/59
